tested on: Mycobacterium tuberculosis; assay: Antimycobacterial activity against Mycobacterium tuberculosis; assay type: functional; conditions: Mycobacterium tuberculosis
Observable: MIC (µM)
Numbers only, in µM.

Look over these answered cases.
CCCn1cc(C(=O)O)c(=O)c2ccc(N3CCN(CC)CC3)cc21 | 1.44
CN1CCN(c2ccc3c(=O)c(C(=O)O)cn(C4CC4)c3c2)CC1 | 0.724
CNCC1CCN(c2ccc3c(=O)c(C(=O)O)cn(-c4c(F)cccc4F)c3c2)C1 (stereo not given) | 0.579
CCN1CCN(c2ccc3c(=O)c(C(=O)O)cn(-c4c(F)cccc4F)c3c2)CC1 | 2.32

Each compound below has a reported value. Please supply its MIC.
1. CC1CN(c2ccc3c(=O)c(C(=O)O)cn(C4CC4)c3c2)CCN1 (stereo not given)
2. CCC1CN(c2ccc3c(=O)c(C(=O)O)cn(-c4c(F)cccc4F)c3c2)CCN1 (stereo not given)
3. CC(C)n1cc(C(=O)O)c(=O)c2ccc(N3CCC(N)C3)cc21 (stereo not given)
4. CCNCC1CCN(c2ccc3c(=O)c(C(=O)O)cn(-c4c(F)cccc4F)c3c2)C1 (stereo not given)
5. CC1CN(c2ccc3c(=O)c(C(=O)O)cn(C(C)C)c3c2)CC(C)N1 (stereo not given)
6. CC1CN(c2ccc3c(=O)c(C(=O)O)cn(C4CCC4)c3c2)CC(C)N1 (stereo not given)

1: 0.724; 2: 2.32; 3: 6; 4: 1.12; 5: 5.53; 6: 1.34

---

tested on: Mycobacterium tuberculosis; assay: Antimycobacterial activity against Mycobacterium tuberculosis; type: functional; conditions: Mycobacterium tuberculosis
For each record, write down the corresponding MIC.
Give bare numbers, in µM.

CCCn1cc(C(=O)O)c(=O)c2ccc(N3CCC(N)C3)cc21 (stereo not given) | 12.5
CCN1CCN(c2ccc3c(=O)c(C(=O)O)cn(C(C)(C)C)c3c2)CC1 | 0.346

// for each compound in input: emit MIC
1. CCCCN1CCN(c2ccc3c(=O)c(C(=O)O)cn(C4CC4)c3c2)CC1
2. CNCC1CCN(c2ccc3c(=O)c(C(=O)O)cn(C(C)C)c3c2)C1 (stereo not given)
3. CCC1CN(c2ccc3c(=O)c(C(=O)O)cn(C4CC4)c3c2)CCN1 (stereo not given)
4. CCN1CCN(c2ccc3c(=O)c(C(=O)O)cn(C4CC4)c3c2)CC1
5. CCN1CCN(c2ccc3c(=O)c(C(=O)O)cn(C(C)C)c3c2)CC1
6. CC(C)N1CCN(c2ccc3c(=O)c(C(=O)O)cn(-c4c(F)cccc4F)c3c2)CC1
7. CC1CN(c2ccc3c(=O)c(C(=O)O)cn(C(C)(C)C)c3c2)CC(C)N1 (stereo not given)
8. NC1CCN(c2ccc3c(=O)c(C(=O)O)cn(C4CC4)c3c2)C1 (stereo not given)

1: 1.29; 2: 22.1; 3: 0.696; 4: 0.362; 5: 11.1; 6: 2.25; 7: 0.16; 8: 0.754

---

tested on: Mycobacterium tuberculosis; experiment: Antimycobacterial activity against Mycobacterium tuberculosis; assay type: functional; conditions: Mycobacterium tuberculosis
Field: label. Allowed values: Yes (MIC < 4 µM) or No (MIC >= 4 µM).

NC1CCN(c2ccc3c(=O)c(C(=O)O)cn(C4CCC4)c3c2)C1 (stereo not given) | Yes

Is the reported MIC for NC1CCN(c2ccc3c(=O)c(C(=O)O)cn(-c4c(F)cccc4F)c3c2)C1 (stereo not given) strictly below 4 µM? Yes

Lab note: confirm whether the reported MIC for this compound is below 4 µM, equality not counting. compound: CC(C)(C)n1cc(C(=O)O)c(=O)c2ccc(N3CCNCC3)cc21 Yes

# TODO verify MIC < 4 µM strictly for this compound: CC(C)n1cc(C(=O)O)c(=O)c2ccc(N3CCNCC3)cc21 No

is_below(MIC, 4 µM) for CC(C)N1CCN(c2ccc3c(=O)c(C(=O)O)cn(C4CC4)c3c2)CC1 ? Yes

MIC strictly < 4 µM for this compound? CC(C)CN1CCN(c2ccc3c(=O)c(C(=O)O)cn(C4CC4)c3c2)CC1 Yes

Please state whether MIC is below 4 µM for CCCn1cc(C(=O)O)c(=O)c2ccc(N3CC(C)NC(C)C3)cc21 (stereo not given) Yes

Is MIC of CCCn1cc(C(=O)O)c(=O)c2ccc(N3CCC(CNC)C3)cc21 (stereo not given) strictly below 4 µM? No

Could you please tell me whether MIC recorded for CCCCN1CCN(c2ccc3c(=O)c(C(=O)O)cn(-c4c(F)cccc4F)c3c2)CC1 is less than 4 µM? No

Lab note: MIC threshold 4 µM. Does this compound come in strictly under it? CCCn1cc(C(=O)O)c(=O)c2ccc(N3CCNC(C)C3)cc21 (stereo not given) No
